The values you see were collected from the supplement of paper PMC6555819.

- Tested on: RARg:RXRa (NR concentration 270 nM, RXRa partner concentration 90 nM)
- assay_procedure: PBM binding z-score (relative to random genomic background probes); higher = stronger binding; sequences stand for … in GC…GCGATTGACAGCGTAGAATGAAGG

| chain_sequence | PBM binding z-score |
| --- | --- |
| CGTCAAAGTGCAACTAAGGTAACGTAAAGCACGC | 1.58 |
| TCATATAGGTAAATGCTAGGTGATAGTCCGATCT | 0.496 |
| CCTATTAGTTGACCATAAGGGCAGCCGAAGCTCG | 0.749 |
| ACTAGCAGTCCAAGGGTCACTCAAGATTAGTCCG | 3.72 |
| TCTAGTTGCTCACGGAGGTCACACACGACGGGTA | 4.02 |
| CAAACTAGGTCACGAAAGGTGAAAGTCGAATGAC | 5.68 |
| CAATCTAGGTCAAGGTCAAAGTCGGTTTGTGCCA | 5.89 |
| TCTAGCAGGCCAGAGGGTCACACAAGAGGTACGG | 3.52 |
| TCTTGTATATCAAAGGTTAAGAAAGCCGAAGCCT | 1.98 |
| TCATATAGGTAAATGCTATGTGAAAGTCCGATCT | 0.473 |
| CCAGACAGGTGAGAGGTAACTCAGTCTGGTACGC | 0.564 |
| GTACCAATGTGAATAGGTCGTTGATGAGTAGGCG | 0.177 |
| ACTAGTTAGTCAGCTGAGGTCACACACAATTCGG | 3.65 |
| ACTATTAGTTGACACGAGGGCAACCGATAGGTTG | 1.56 |
| CGTCCAAGGTCAGAGACGTCAGTGAATGCCGAGT | 4.24 |
| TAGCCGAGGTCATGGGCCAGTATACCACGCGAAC | 6.64 |
| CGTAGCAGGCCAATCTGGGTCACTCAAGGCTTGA | 0.96 |
| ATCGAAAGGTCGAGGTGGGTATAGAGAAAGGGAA | 4.26 |
| ATCGAGAGGTCGAAGGTGAGTATACCCACCCGAA | 3.28 |
| ATCGAAAGGTCGAAGGTGGGTATACCCACCCGAA | 3.9 |
| TCTCGGACGACACGAAGGTCAGAGCTTTCCAGAG | 2.49 |
| TGAATGCGGTTAAAGATCAGGGAACGTGGCGTCG | -0.0436 |
| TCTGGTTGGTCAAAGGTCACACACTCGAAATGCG | 7.36 |
| AGAATGAGATTATACGTAGATCAGGGAAGAAAGT | 0.0162 |
| AGAATGTGGTTATTAAGATCAGGGAATTGCGGTC | -0.113 |
| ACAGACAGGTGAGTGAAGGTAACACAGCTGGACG | 0.416 |
| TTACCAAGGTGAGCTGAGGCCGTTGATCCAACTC | -0.177 |
| CGAACGAGGGCACGAGTTGATAGCAAATGCCGAT | 1.8 |
| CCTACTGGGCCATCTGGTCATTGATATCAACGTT | 0.0182 |
| ATATGTAGGTTTAGGGTCATTCAGGTTGGTTCGC | 3.53 |
| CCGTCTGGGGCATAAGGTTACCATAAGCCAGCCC | 1.86 |
| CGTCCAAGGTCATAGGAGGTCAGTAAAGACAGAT | 6.85 |
| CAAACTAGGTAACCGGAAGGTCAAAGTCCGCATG | 4.35 |
| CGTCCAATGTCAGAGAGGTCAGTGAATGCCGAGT | 3.35 |
| CCGACTGGGGCAAAGGTAACCATACTCAGTACGA | 1.28 |
| CAGACAGGGTCAGCTAGGCCAGAGTAGGGACGGC | 4.3 |
| TCATATAGGTAAGCAGGTGAAAGTCCGTAAGTTA | 0.2 |
| CCTTACGGGTCACGAGGCTATAGCACGACGAGCG | 5.45 |
| AGAACGAGGGCACGCTGAGTTGTTAGCAGAGTAG | 1.85 |
| TCATATAGGTAATTCAGGTGAAAGTCGGCATCTA | 0.323 |
| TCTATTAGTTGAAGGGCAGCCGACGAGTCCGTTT | 0.303 |
| TCTAGCAGTCCAGAGGGTCACTCAAGAGGTACGG | 2.4 |
| CCTCTGAGGACAGAAGGTCAGAGCTGTCCGCTTT | 3.76 |
| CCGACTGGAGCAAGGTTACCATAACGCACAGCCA | 0.461 |
| CAATCTAGGTCAAGAGGTCAAAGTCCGCTTCCCG | 8.19 |
| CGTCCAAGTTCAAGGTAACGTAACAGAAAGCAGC | 2.83 |
| GGAACGAGGGCATTCGAGTTGAAAGCATGGCGAT | 1.02 |
| TTACCAAGGTGAGCTAAGGTCGTTGATCCAACTC | 1.56 |
| TCATATAGGTAAAGGTGAGAGTCGAACGATATGA | 1.29 |
| GCTGCTAGGTCAACTGATGGTCAGCCAAAGCTCG | 5.01 |
| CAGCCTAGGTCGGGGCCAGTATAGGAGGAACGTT | 0.359 |
